Assignment: determine reported DC50 for the given molecules.
Biological target: Cbl-b (Homo sapiens)
Construct: Cbl-b-HiBit KI Jurkat Cells were purchased from Promega; host or cells: Cbl-b-HiBiT knock-in Jurkat cells
Sequence (Q13191 whole entry): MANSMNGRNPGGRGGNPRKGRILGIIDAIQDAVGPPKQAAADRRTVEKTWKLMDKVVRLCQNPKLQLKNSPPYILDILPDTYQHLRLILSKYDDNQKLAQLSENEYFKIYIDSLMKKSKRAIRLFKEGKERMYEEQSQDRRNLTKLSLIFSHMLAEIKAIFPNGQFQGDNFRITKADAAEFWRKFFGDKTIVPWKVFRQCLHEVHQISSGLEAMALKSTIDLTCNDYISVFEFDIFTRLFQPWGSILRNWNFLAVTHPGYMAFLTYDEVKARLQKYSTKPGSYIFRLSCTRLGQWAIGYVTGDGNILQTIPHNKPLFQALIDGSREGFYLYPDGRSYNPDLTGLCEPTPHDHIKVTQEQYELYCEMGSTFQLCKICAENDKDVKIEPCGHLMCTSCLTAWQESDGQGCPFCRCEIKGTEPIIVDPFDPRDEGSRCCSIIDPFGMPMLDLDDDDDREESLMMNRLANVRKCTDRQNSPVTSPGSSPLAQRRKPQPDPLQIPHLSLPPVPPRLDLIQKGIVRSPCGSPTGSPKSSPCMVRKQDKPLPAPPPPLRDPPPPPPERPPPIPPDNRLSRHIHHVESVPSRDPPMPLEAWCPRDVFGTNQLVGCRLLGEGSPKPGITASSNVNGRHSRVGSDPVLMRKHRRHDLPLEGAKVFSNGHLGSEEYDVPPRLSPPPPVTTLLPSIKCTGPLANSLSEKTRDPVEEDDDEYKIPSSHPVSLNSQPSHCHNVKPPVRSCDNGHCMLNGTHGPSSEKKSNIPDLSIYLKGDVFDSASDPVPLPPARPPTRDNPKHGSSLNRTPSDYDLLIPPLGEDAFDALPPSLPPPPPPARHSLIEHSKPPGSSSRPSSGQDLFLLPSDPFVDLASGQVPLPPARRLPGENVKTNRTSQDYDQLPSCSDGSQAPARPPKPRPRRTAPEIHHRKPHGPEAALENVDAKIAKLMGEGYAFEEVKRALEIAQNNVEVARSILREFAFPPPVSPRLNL
Experiment: Cbl-b Degradation Method B (Nano-Glo HiBiT lytic detection)
Assay type: cell-based
Details: Cbl-b-HiBit KI Jurkat Cells, incubated at least 6-24 hours; half maximal degradation; read-out: Cbl-b Degredation Method B IC50

## Task Given the molecule Cn1cnnc1CC1(c2cccc(N3Cc4c(cc(CN5CC6(CCN(c7ccc8c(c7)C(=O)N(C7CCC(=O)NC7=O)C8=O)CC6)C5)cc4C(F)(F)F)C3=O)c2)COC1 (stereo not shown) [Example 49] , write its reported DC50.
## Result > 500 nM

## Task Given the molecule O=C1CCC(N2Cc3c(ccc(N4CCC(O[C@H]5CC[C@H](CN6CCN(Cc7cc8c(c(C(F)(F)F)c7)CN(c7cccc(C9(Cc%10nnc[nH]%10)COC9)c7)C8=O)CC6)CC5)CC4)c3F)C2=O)C(=O)N1 (stereo partly shown) [Example 197] , write its reported DC50.
## Result > 500 nM

## Task Given the molecule Cc1cc(N2CCC(O[C@H]3CC[C@H](CN4CCN(Cc5cc6c(c(C(F)(F)F)c5)CN(c5cccc([C@]7(Cc8nncn8C)C[C@H](C#N)C7)c5)C6=O)[C@@H](C)C4)CC3)CC2)c(F)c2c1C(=O)N(C1CCC(=O)NC1=O)C2 (stereo partly shown) [Example 220] , write its reported DC50.
## Result < 5 nM

## Task Given the molecule Cn1cnnc1C[C@]1(c2cccc(N3Cc4c(cc(CN5CCN(C[C@H]6CC[C@H](OC7CCN(c8cccc9c8n(C(F)F)c(=O)n9C8CCC(=O)NC8=O)CC7)CC6)CC5(C)C)cc4C(F)(F)F)C3=O)c2)C[C@H](C#N)C1 (stereo partly shown) [Example 324] , write its reported DC50.
## Result < 5 nM

Sourced from patent US20260184710A1
